These measurements were taken from paper PMC4076079.

Below: a set of entries, each annotated with reported percentage inhibition, product 16:0/20:4 Alkyl-PC, hLPCAT2.
biological target: hLPCAT2 (Homo sapiens, UniProt Q7L5N7); construct: expressed in transfected cells; host or cells: CHO-S-PAFR cells (microsomal fraction), with or without mcPAF stimulation; assay: acyltransferase activity assay, 16:0/20:4 alkyl-PC product by LC-MS/MS; assay type: biochemical; conditions: 20 μM compound; microsomal fractions of nonstimulated CHO-S-PAFR cells; n = 3, mean ± SEM
Sequence (Q7L5N7 whole entry): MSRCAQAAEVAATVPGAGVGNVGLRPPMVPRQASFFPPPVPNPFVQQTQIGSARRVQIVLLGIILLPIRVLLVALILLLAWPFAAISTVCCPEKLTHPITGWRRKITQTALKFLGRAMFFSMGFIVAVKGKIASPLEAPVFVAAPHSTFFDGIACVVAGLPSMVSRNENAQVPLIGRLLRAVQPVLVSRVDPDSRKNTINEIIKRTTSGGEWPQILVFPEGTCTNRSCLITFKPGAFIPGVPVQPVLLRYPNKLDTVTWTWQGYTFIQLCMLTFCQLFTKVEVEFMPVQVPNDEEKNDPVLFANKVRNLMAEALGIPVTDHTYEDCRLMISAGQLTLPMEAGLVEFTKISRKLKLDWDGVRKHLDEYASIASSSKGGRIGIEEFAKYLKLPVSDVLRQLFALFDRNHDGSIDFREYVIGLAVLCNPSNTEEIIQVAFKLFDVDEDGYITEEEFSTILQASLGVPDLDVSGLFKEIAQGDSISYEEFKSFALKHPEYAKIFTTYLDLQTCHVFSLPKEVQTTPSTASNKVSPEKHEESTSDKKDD
Express it in percentage; write the number only.

The following molecules have reported results that may help.
CC(C)OC(=O)c1ccc(N2C(=O)C(Cl)=C(Cl)C2=O)cc1 | 95.2
CC(C)OC(=O)c1ccc(N2C(=O)C(Cl)=C(Nc3ccccc3O)C2=O)cc1 | 83.1
CCCOC(=O)c1ccc(N2C(=O)C(Cl)=C(Cl)C2=O)cc1 | 85.4

Next up:
Quick one: percentage inhibition, product 16:0/20:4 Alkyl-PC, hLPCAT2 of `CCCCOC(=O)c1ccc(N2C(=O)C(Cl)=C(Cl)C2=O)cc1` ?
80.4

###

target: hLPCAT2 (Homo sapiens, UniProt Q7L5N7); experiment: kinetic analysis of lyso-PAFAT activity; details: lyso-PAFAT activity of hLPCAT2, competitive with acetyl-CoA; Dixon plot, Prism; mcPAF-stimulated microsomes; read-out: Inhibition constant (apparent Ki value)
pKi: −log10 of the molar value.
quantity-measured: pKi

Quick one: pKi of CC(C)OC(=O)c1ccc(N2C(=O)C(Cl)=C(Cl)C2=O)cc1 [TSI-01] ?
7.40 to 7.52

###

biological target: hLPCAT2 (Homo sapiens); construct: expressed in transfected cells; host or cells: CHO-S-PAFR cells (microsomal fraction), with or without mcPAF stimulation; experiment: lyso-PAFAT (acetyltransferase) activity assay, PAF product by LC-MS/MS; format: biochemical; details: 0, 0.2, 0.6, 2, 6 and 20 μM of each compound in triplicate; LC-MS/MS; read-out: IC50, product PAF, enzyme hLPCAT2
pIC50: −log10 of the molar value.
Below: a set of entries, each annotated with reported pIC50.

The following compounds have reported results that may help.
COC(=O)c1ccc(N2C(=O)C(Cl)=C(Nc3ccc(S(N)(=O)=O)cc3)C2=O)cc1 | < 4.70
CC(C)OC(=O)c1ccc(N2C(=O)C(Cl)=C(N3CCOCC3)C2=O)cc1 | < 4.70

Next up:
Quick one: pIC50 of `COc1ccc(N2C(=O)C(Cl)=C(Oc3ccccc3OC)C2=O)cc1` ?
< 4.70

###

Below: a set of entries, each annotated with reported IC50.
molecular target: hLPCAT1 (Homo sapiens, UniProt Q8NF37); construct: expressed in transfected cells; experiment: lyso-PAFAT (acetyltransferase) activity assay, PAF product by LC-MS/MS; assay type: biochemical; conditions: 0, 0.2, 0.6, 2, 6 and 20 μM of each compound in triplicate; LC-MS/MS; read-out: IC50, product PAF, enzyme hLPCAT1
Sequence (Q8NF37 whole entry): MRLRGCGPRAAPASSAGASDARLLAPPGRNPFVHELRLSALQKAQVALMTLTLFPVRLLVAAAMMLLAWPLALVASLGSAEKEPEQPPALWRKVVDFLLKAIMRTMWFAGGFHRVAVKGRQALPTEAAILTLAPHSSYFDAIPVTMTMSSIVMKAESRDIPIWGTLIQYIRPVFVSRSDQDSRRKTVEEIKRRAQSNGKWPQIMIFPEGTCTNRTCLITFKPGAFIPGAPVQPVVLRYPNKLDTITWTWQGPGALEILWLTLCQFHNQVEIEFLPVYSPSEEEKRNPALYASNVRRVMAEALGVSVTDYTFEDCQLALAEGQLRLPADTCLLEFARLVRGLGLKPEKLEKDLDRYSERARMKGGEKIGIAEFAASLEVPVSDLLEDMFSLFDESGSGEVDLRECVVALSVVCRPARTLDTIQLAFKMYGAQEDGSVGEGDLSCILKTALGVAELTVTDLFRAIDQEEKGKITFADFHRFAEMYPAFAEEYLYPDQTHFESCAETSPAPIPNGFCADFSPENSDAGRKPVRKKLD

COC(=O)c1ccc(N2C(=O)C(Cl)=C(Nc3ccc(S(N)(=O)=O)cc3)C2=O)cc1 | > 20 µM
CC(C)OC(=O)c1ccc(N2C(=O)C(Cl)=C(N3CCOCC3)C2=O)cc1 | > 20 µM

Quick one: IC50 of `COc1ccc(N2C(=O)C(Cl)=C(Oc3ccccc3OC)C2=O)cc1` ?
> 20 µM
